molecular target: MLTK (human) (UniProt Q9NYL2); experiment: radiometric filter-binding kinase assay, Kinase HotSpot; conditions: compound 0.5 µM; ATP 10 µM
Sequence (Q9NYL2 whole entry, looked up): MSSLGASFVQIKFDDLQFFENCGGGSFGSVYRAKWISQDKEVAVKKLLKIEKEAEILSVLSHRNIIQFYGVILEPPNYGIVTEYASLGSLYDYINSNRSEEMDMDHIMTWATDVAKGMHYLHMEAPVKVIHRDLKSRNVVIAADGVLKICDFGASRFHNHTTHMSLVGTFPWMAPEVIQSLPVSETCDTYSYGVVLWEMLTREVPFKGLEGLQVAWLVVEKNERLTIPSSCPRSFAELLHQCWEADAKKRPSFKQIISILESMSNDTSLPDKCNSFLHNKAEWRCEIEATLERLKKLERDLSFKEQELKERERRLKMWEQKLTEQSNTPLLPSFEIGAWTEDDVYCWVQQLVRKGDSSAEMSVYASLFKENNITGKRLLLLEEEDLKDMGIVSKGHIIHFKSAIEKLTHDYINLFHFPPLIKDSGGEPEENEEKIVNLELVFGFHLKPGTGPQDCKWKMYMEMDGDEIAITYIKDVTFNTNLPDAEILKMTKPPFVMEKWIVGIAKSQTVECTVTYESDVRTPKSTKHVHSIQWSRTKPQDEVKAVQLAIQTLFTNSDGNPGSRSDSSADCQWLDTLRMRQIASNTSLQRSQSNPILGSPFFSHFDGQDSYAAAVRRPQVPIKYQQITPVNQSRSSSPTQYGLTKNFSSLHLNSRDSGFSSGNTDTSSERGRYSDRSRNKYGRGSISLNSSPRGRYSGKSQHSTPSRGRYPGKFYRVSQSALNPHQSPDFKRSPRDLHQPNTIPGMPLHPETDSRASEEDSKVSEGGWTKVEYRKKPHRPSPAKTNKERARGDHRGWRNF
What residual activity was measured for each of the following?
Numbers only, in %.

Some compounds with recorded residual activity:
Any idea what its residual activity is? The compound is `O=C1NC(=O)/C(=C\c2ccc3nccnc3c2)S1`
93.6

Please give the measured residual activity for this compound: `O=C1Nc2ccccc2/C1=C1\Nc2ccccc2\C1=N/O`
89.6

***
Please give the measured residual activity for this compound: `COc1cc2ncnc(N3CCN(C(=O)Nc4ccc(Oc5ccccc5)cc4)CC3)c2cc1OC`
96.2

* * *

Provide the reported residual activity of each item.
target: ERBB2 (human); assay: radiometric filter-binding kinase assay, Kinase HotSpot; details: compound 0.5 µM; ATP 10 µM
One number for each entry, in %.

Known results for molecules:
Quick one: residual activity of `CN([C@@H](Cc1ccc(OS(=O)(=O)c2cccc3cnccc23)cc1)C(=O)N1CCN(c2ccccc2)CC1)S(=O)(=O)c1cccc2cnccc12` ?
96

What measured residual activity goes with `O=C(O)/C=C/c1cc(Br)c(Br)c(Br)c1Br` ?
95.4

I have this molecule here, `COc1ccc(OC)c2c(=S)c3ccccc3[nH]c12` , and I need its recorded residual activity.
93.6

What value of residual activity has been recorded for this entry: `CC(=O)O/N=C1\C(=C2\C(=O)Nc3cc(Br)ccc32)Nc2ccccc21`
114

Consider the molecule shown here: `CN(C)C[C@H]1CCn2c(c(C3=C(c4cn(C)c5ccccc45)C(=O)NC3=O)c3ccccc32)C1` What is its recorded residual activity?
95.9

Would you kindly share the measured residual activity for `Nc1nnc2[nH]c3ccccc3nc1-2` ?
95.2

Could you tell me which residual activity is on file for `CC(C)c1nn(-c2c(Cl)cccc2Cl)c2nc(Cc3ccc(OCCO)cc3)nc(O)c12` ?
101

Find the recorded residual activity belonging to `Cc1nc2cc3nc(-c4cccs4)cnc3cc2n1C` and report it.
92

Go through the list and state residual activity for each entry.
1. CC(C)[C@H](CO)Nc1nc(Nc2cc(N)cc(Cl)c2)c2ncn(C(C)C)c2n1
2. CCN(CC)CCCCN1c2ccccc2Oc2ccc(Cl)cc21
3. O=C(Nc1cccc(Nc2cc(Nc3cccc(C(F)(F)F)c3)ncn2)c1)C1CC1
4. O=C1Cc2c([nH]c3ccc(Br)cc23)-c2ccccc2N1
5. COc1ccc(CNC(=O)Nc2ncc([N+](=O)[O-])s2)cc1
6. COc1cc2ncc(-c3ccccc3)nc2cc1OC
7. Cn1sc(=O)n(Cc2ccccc2)c1=O
8. O=C1Nc2ccccc2/C1=C1\Nc2ccccc2\C1=N/O

92.9
96.6
82.5
103
96.9
116
106
97.9

* * *

molecular target: AKT3 (human); test: radiometric filter-binding kinase assay, Kinase HotSpot; details: compound 0.5 µM; ATP 10 µM
Would you kindly list residual activity for each of these molecules?
Write down the value, and be sure its unit follows.

Could you tell me which residual activity is on file for `Nc1nnc2[nH]c3ccccc3nc1-2` ?
95.3%

Given `Cn1nc2c3c(cccc31)C(=O)c1ccccc1-2` , state its recorded residual activity.
102%

Find the recorded residual activity belonging to `O=C1Cc2c([nH]c3ccc(Br)cc23)-c2ccccc2N1` and report it.
105%

Fill blank: measured residual activity of the molecule `O=C1NC(=O)C(c2cn(CCCO)c3ncccc23)=C1c1cnccn1` is ____.
101%

Batch of 6 molecules: report residual activity for each.
1. COc1ccc(CNC(=O)Nc2ncc([N+](=O)[O-])s2)cc1
2. CCN(CC)CCCCN1c2ccccc2Oc2ccc(Cl)cc21
3. CC(=O)O/N=C1\C(=C2\C(=O)Nc3cc(Br)ccc32)Nc2ccccc21
4. CN([C@@H](Cc1ccc(OS(=O)(=O)c2cccc3cnccc23)cc1)C(=O)N1CCN(c2ccccc2)CC1)S(=O)(=O)c1cccc2cnccc12
5. O=C1NC(=O)/C(=C\c2ccc3nccnc3c2)S1
6. COc1cc2ncnc(N3CCN(C(=O)Nc4ccc(Oc5ccccc5)cc4)CC3)c2cc1OC

1: 95.9%; 2: 103%; 3: 95.1%; 4: 104%; 5: 104%; 6: 97.5%

# return residual activity for each item in the list
1. O=C(O)/C=C/c1cc(Br)c(Br)c(Br)c1Br
2. Cn1sc(=O)n(Cc2ccccc2)c1=O
3. Cc1nc2cc3nc(-c4cccs4)cnc3cc2n1C

["92.7%", "96.6%", "112%"]

Parameter requested: residual activity. Apply to each item below.
1. COc1cc2ncc(-c3ccccc3)nc2cc1OC
2. O=C(CCCc1ccc(-c2ccccc2F)cc1)Nc1ccc(O)cc1

1. 94.5%
2. 111%
